Tested on: PPARg:RXRa 90nM:30nM, anti-RXR (NR concentration 90 nM, RXRa partner concentration 30 nM)
TEST PROTOCOL: PBM binding z-score (relative to random genomic background probes); higher = stronger binding; sequences stand for … in GC…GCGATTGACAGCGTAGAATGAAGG

| SEQUENCE CONTENT | PBM binding z-score |
| --- | --- |
| TCAATGAGGTTATAAGATCAGGGAACGTTGCAAA | 2.66 |
| CCGACTGGCGCATAAGGTTACCATAAGCCAGCCC | -0.235 |
| TCTATTAGTTGTTTAGGGCAACCGAAACAGCGGA | 2.99 |
| CTTCAAAGTTCAAGGTAACGTAACAGAAAGCAGC | 2.43 |
| AGTCAAAGTTCAGGACAAGGTAACGTAAAGCACG | 4.11 |
| CCGATTAGGTTATGGGGCATTCAGGCAACGGTGA | 2.83 |
| CGTCAATGTTCAACTAAGGTAACGTAAAGCACGC | 0.0418 |
| CGTCCAAGGTCAGCAGTTCAGTGAAAGCGACGTG | 1.82 |
| CCTTACGGCTCACTCCAGGTTATAGCATCGGAGT | -0.238 |
| CCGCCTGGGGCATAAGGTTACCATAAGCCAGCCC | 0.461 |
| ACTATTAGTGGACTTAGGGCAACCGATACGACGC | 0.211 |

====

Test system: FXR:RXRa (NR concentration 270 nM, RXRa partner concentration 90 nM)
TEST PROTOCOL: PBM binding z-score (relative to random genomic background probes); higher = stronger binding; sequences stand for … in GC…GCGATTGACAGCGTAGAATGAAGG
Cut-off 4 on PBM binding z-score, inclusive. At or above means 1.0; below means 0.0.

| SEQUENCE CONTENT | DISCRETE LABEL |
| --- | --- |
| CCGAGTAGGTTTTGGGGCATTCAGGCAACGGTGA | 0.0 |
| AGTTACGGGTCAACGAGGTTATAGCACGCGTATA | 1.0 |
| CCTCGGAGGACAGAAGGTTAGAGCTGTCCGCTTT | 0.0 |
| CCTTACGGGTCAAAGTTATAGCACGGGTGGTACG | 1.0 |
| CGAACTAGGTCATTGACAGGACATTGAATAGTAA | 0.0 |

====

Tested on: RARa:RXR (NR concentration 270 nM, RXRa partner concentration 90 nM)
TEST PROTOCOL: PBM binding z-score (relative to random genomic background probes); higher = stronger binding; sequences stand for … in GC…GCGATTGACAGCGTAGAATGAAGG
# reported PBM binding z-score; entries follow

| SEQUENCE CONTENT | ASSAYED SYSTEM | PBM binding z-score |
| --- | --- | --- |
| TCTATTAGTTGAAGGGCAAGCGACGAGTCCGTTT | RARa:RXR (NR concentration 270 nM, RXRa partner concentration 90 nM) | 0.478 |
| TCTTGTAGATCAGCAGGCTAAGAAAGCTGGCCAA | RARa:RXR (NR concentration 270 nM, RXRa partner concentration 90 nM) | -0.459 |
| GCGACTGGGTCAAAGCAGGTTACCATAAGGTTGG | RARa:RXR (NR concentration 270 nM, RXRa partner concentration 90 nM) | 3.29 |
| ACAGAGAGGTGAGTGAAGGTAACTCAGCTGGACG | RARa:RXR (NR concentration 270 nM, RXRa partner concentration 90 nM) | 0.565 |
| ATATATAGGTTACATCCGGGTCATTCAGGCTATG | RARa:RXR (NR concentration 270 nM, RXRa partner concentration 90 nM) | 4.05 |
| TCTTGTAGATCAGCAGCTTAAGAAAGCTGGCCAA | RARa:RXR (NR concentration 270 nM, RXRa partner concentration 90 nM) | 0.087 |
| ATATGTAGGTTAAGGGTCATTCGGGTTGGTTCGC | RARa:RXR (NR concentration 270 nM, RXRa partner concentration 90 nM) | 6.67 |
| AGAATGAGGTTATAGGTAGATCAGGGAAGAAAGT | RARa:RXR (NR concentration 270 nM, RXRa partner concentration 90 nM) | 1.93 |
| AGAGTGAGGTTATACGTAGATCAGGGAAGAAAGT | RARa:RXR (NR concentration 270 nM, RXRa partner concentration 90 nM) | 1.65 |

====

Test system: RARg homodimer (NR concentration 270 nM)
TEST PROTOCOL: PBM binding z-score (relative to random genomic background probes); higher = stronger binding; sequences stand for … in GC…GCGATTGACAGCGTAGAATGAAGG
# Lookup of reported PBM binding z-score keyed by entry
QUANTITY MEASURED: PBM binding z-score

| SEQUENCE CONTENT | RECORDED NUMBER |
| --- | --- |
| CGTCCAAGGTCAAAGGTCTGTGAAGAGATGACGG | 6.12 |
| CGAACTAGTTCATTGACAGGACAGTGAATAGTAA | 1.11 |
| CCTGCTAGGTCAATGCTCAGCTAAAGCAGCTCGC | 4.3 |
| ACTCGGCGGACAAAGGTCAGAGCTACGCCAGTGA | 4.72 |
| CGTCCAAGGTCAGAGAGGTCAGTGCATGCCGAGT | 6.95 |
| ACTCGGAGGACAAAGGTCGGAGCTACGCCAGTGA | 1.75 |
| CCAGACAGGTGCAAGGTAACTCAGTCTGGTACGC | -0.108 |
| TCGAGTAGGGTAGTCGGGGCATTCAGCCAACATA | -0.538 |
| ATATGTAGGTTAGATGGGGTCATTCAGACTAGGC | 2.93 |
| GCGACTGGGGCATCAGAAGGTTACCATAACTTAA | 1.06 |
| CTCGAAAGGTCGGTTGAGGTGAGGATACGGATAA | 2.94 |
| TCTAGTTGGTCACGGAGGCCACACACGACGGGTA | 2.06 |
| GATACAGGGTCAAGGCCAGAGTGCGCGTATTGAT | 5.27 |
| GCGACTGGGGCATCACCAGGTTACCATAACTTAA | 0.521 |
| ATCCCTAGGTAAGACTCAGTTCAGTGAAGAACGC | -0.0617 |
| GCTCTGAGGACAAGGTCAGAGCTTTGTCCGTAGA | 3.63 |

====

Test system: VDR:RXRa (NR concentration 270 nM, RXRa partner concentration 90 nM)
TEST PROTOCOL: PBM binding z-score (relative to random genomic background probes); higher = stronger binding; sequences stand for … in GC…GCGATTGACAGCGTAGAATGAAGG
Listing of recorded PBM binding z-score by entry.

| SEQUENCE CONTENT | PBM binding z-score |
| --- | --- |
| AGAACGAGGGCAATGAGTTGCTAGCACGGGTGGC | 3.91 |
| CAAACTATGTCAAAGGTCAAAGTCGAGCCAACCA | 5.41 |
| ATCTATAGGTAACCAAGTTCAGTGAATGCCGAAC | 5.03 |
| GCTAGCAGGCCATTTGCGTCACTCAATGACGGGC | -0.801 |
| ATCCAAAGGTCGTGAGGTGAGTATACAGAAAGGC | 3.91 |
| CCTACTGGGCCAGTCAGAGGTCATTGATCATATG | 3.67 |
| TAGCCTAGGTCTGATCGGGCCAGTATACGCTATA | -0.771 |

====

Test system: PPARg:RXRa 30nM:10nM, anti-RXR (NR concentration 30 nM, RXRa partner concentration 10 nM)
TEST PROTOCOL: PBM binding z-score (relative to random genomic background probes); higher = stronger binding; sequences stand for … in GC…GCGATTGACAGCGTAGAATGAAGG

| SEQUENCE CONTENT | PBM binding z-score |
| --- | --- |
| TCAGACAAGTGAAGGTAACTCAGGTACGCAGTCG | 3.99 |
| ACTATTAGTTGACTTAGGGCCACCGATACGACGC | 0.18 |
| TCCTATAGGTAAAAGGTGAAAGTCGGTGTGGTAA | 7.38 |
| ATCACTAGGTAAAGTTCAGTGAAAGATCGATAGA | 1.45 |
| ATATGTAGGTTAAGGGTCATACAGGTTGGTTCGC | 9.63 |
| ACTGTTAGTTGAGACGAGGGCAACCGATAGGTTG | -0.0644 |
| TATACAGGGTGAAAGGCCAGAGTACGAATGTCGA | 4.23 |
| TCTCGGACGACACGAAAGGTCAGAGCTCGACATC | 2.84 |
| ATCTCTAGTTAACCAAGTTCAGTGAATGCCGAAC | 0.153 |
| CGTCCAAGGTCATAGGATGTCAGTGAAGACAGAT | 1.9 |
| TTTATTAGTTGATTAGGGCAACCGAAACAGCGGA | 1.69 |
| CCAACTGGGGCAAAGGTTACCATACTCAGTACGA | 9.26 |
| GCGACTGGGGCATAGCAGGTTACCATAAGGTTGG | -0.371 |
| ACAGACAGGTAATGAAGGTAACTCAGGCTATCAT | -0.0735 |
| GCGACTGGGGCATCAGCAGGTTACCCTAACTTAA | -0.87 |
| ACTATTAGTTGACTAAGGGCAACCGATACGACGC | 0.0857 |
| CGAACTAGGTCAGAACACGACAGTGAAGGATGAT | 1.68 |
| GCTGCTAGGTAAACTGATGGTCAGCTAAAGCTCG | -0.739 |
| TGAATGAGGTTAAAGATGAGGGAACGTGGCGTCG | 2.44 |
| TCAGACAGGCGAAGGTAACTCAGGTACGCAGTCG | 3.02 |
| GATGCAGGGTCAGCTAGAGGCCAGAGTATGGAAA | 0.448 |
| AGTCAAAGTTTACTAGGTAACGTAAGATTCAGCT | 1.13 |
| TCCAGTAGGTTACCAATGGGGCATTCAGCTTTCT | 2.63 |
| CGTCCAAGTTCAAAGGTCAGTGAAGAGATGACGG | 4.28 |
| ATCTCTAGGTAAAGATTGTTCAGTGAATGCAAAT | 0.342 |
| ACTAGCAGGCCAGGGGTCACTCAAGATTAGTCCG | 4.58 |
| ACTAGTTGGTCAGCTGAGGTCCCACACAATTCGG | -0.52 |
| CGTCCAAGGTCAAAGGTCAGTGAAGAGATGACGG | 8.26 |
| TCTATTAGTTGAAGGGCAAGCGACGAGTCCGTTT | 3.57 |
| ACTAGCAGGCCAAGGGTCACTGAAGATTAGTCCG | 6.5 |
| CCTGCTAGGTAAATGGTCAGCTAAAGCAGCTCGC | 0.189 |
| TAGCCTAGGTCATGAGCCAGTATACCACGCGAAC | 0.892 |
| ATCTCTAGGTAACAAGTTCAGCGAAAGAGAGGAC | 0.884 |
| ACAGATAGGTGATGAAGGTAACTCAGGCTATCAT | 0.412 |
| CCGACTGGGGCAAGGTTACTATAACGCACAGCCA | 1.03 |
| AGAATGAGGTTACCAAAGATCATGGAAACGCTTG | 1.11 |
